- experimental protocol: growth of efflux-deficient E. coli DRC39 – strain DRC39, OD650, 24 h, E. coli filamentation inducers, primary screen (AID 1178);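 note: growth measured as culture turbidity by optical density at 650 nm; test concentration not given here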
- condition notes: E. coli DRC39 acrAB, higher = more signal, called active from +8 up or from −8 down
experimental readout: z-score
Answers are plain numbers.

Worked cases, answers included:
COCC(=C=CC[C@H](O)c1ccccc1OCCO)C[C@H](O)COCc1ccccc1; -0.348
CN(C)c1ccc(C(O)C2C=CC3C(=O)N(Cc4ccccc4)C(=O)C3N2n2cnnc2)cc1 (stereo not given); 0.0571
CC(C)C[C@@H]1NC(=O)[C@@H]2C[C@H](C(=O)NCCCCCCNC(=O)CS)[C@H](c3cccc(OCCO)c3)N2C1=O; -0.379
COc1ccc(C(=O)Nc2ccc3c(c2)[C@@]2(O[C@H](CCO)[C@@H]([Si](C)(C)c4ccc(OC)cc4)[C@@H]2C)C(=O)N3Cc2ccccc2)cc1; -0.59
COC(=O)[C@]1(Cc2ccccc2)N=C(c2ccc(OCCCO)cc2)O[C@@H]1c1ccccc1CN=[N+]=[N-]; 1.28

Consider the following items and state reported z-score for each.
1. CC(C)OC(=O)CC(=O)CC(O)c1cccc([N+](=O)[O-])c1 (stereo not given)
2. COc1ccc([Si](C)(C)[C@@H]2[C@@H](CC(=O)N3Cc4ccccc4C[C@H]3CO)O[C@]3(C(=O)N(Cc4ccc(N5CCOC5=O)cc4)c4ccccc43)[C@H]2C)cc1
3. OCCCC1=CC(c2ccc(CN3CCCC3)cc2)N(Cc2cccc(OC(F)(F)F)c2)CC1 (stereo not given)
4. [N-]=[N+]=Nc1ccccc1[C@@H]1OC(c2ccc(OCCCO)cc2)=N[C@]1(CCS(=O)(=O)c1ccccc1)C(=O)NCC(O)CO (stereo not given in full)
5. CCOC(=O)C[C@H]1[C@H](OC(=O)Cc2ccc3c(c2)OCO3)[C@@H](NC(=O)c2ccc3ccccc3n2)c2cc(OCCCO)ccc2N1C(=O)Cc1ccc(OC)cc1
6. CCCCC(O)C1C=CC2C(=O)N(c3ccccc3)C(=O)C2N1Nc1ccccc1 (stereo not given)

Reply:
1. 0.704
2. 0.868
3. -1
4. 0.125
5. 1.12
6. -0.407

###

- Tested on: Sonic hedgehog protein (Shh)
- experimental protocol: Sonic hedgehog microarray binding compounds – biochemical, small-molecule microarray, 635/667 nm fluorescence, primary screen (AID 1151);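 note: Shh protein binding to compounds spotted on small-molecule microarray slides; score combines spot fluorescence intensity with signal-to-noise across triplicate slides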
- condition notes: 635 nm fluorescence, higher = more signal
Note that class boundaries on composite z-score are band A (below -0.1), band B (-0.1 to below 0.6), band C (0.6 or more)

Below are worked cases with known answers.
CCOC(=O)C[C@H]1[C@H](OC(=O)c2ccccc2-c2ccccc2)[C@@H](NC(=O)c2ccc3ccccc3c2)c2cc(OCCCO)ccc2N1C(=O)Cc1ccc(OC)cc1; band A
COC(=O)C(CC#Cc1ccc2c(c1)[C@]1(C(=O)N2)[C@H](C(=O)NC[C@H](O)c2ccccc2)[C@H]2C(=O)O[C@H](c3ccccc3)[C@H](c3ccccc3)N2[C@@H]1c1ccccc1OCCO)C(=O)OC; band C
CC(C)=C1C(=O)C(c2ccccc2)=C2CN3C(=O)N(CCc4ccccc4)C(=O)[C@]3(C)[C@H]21; band A
COCCOC(=O)N1C(=O)[C@@]2(c3cc(C#CCCO)ccc31)[C@H](C(N)=O)[C@H]1C(=O)O[C@H](c3ccccc3)[C@H](c3ccccc3)N1[C@@H]2c1ccccc1OCCO; band C
COCCOC(=O)N1C(=O)[C@@]2(c3cc(C#CCNC(N)=O)ccc31)[C@H](C(=O)Nc1nc3ccccc3s1)[C@H]1C(=O)O[C@H](c3ccccc3)[C@H](c3ccccc3)N1[C@@H]2c1ccccc1OCCO; band C

Query: State the band of `COC(=O)[C@@]1(Cc2ccc(OC)cc2)[C@H]2c3cc(C(=O)N4CCCC4)n(Cc4c(CO)[nH]cc(C)c4=O)c3C[C@H]2CN1C(=O)c1ccccc1`
Reply: band A

Query: Try `CC(C)c1nc2cc(Br)ccc2c(=O)o1` next.
Reply: band B

Query: Try `CCCCCCc1nc(-c2ccc(-c3ccc(Cl)c(Cl)c3)o2)cc2c1[Si](C(C)C)(C(C)C)OC2` next.
Reply: band A

Query: Try `COC(=O)[C@@]1(Cc2ccccc2)[C@H]2c3cc(C(=O)N4CCCC4)n(Cc4ccc(OC)c(OC)c4)c3C[C@H]2CN1C(=O)c1ccccc1` next.
Reply: band A

###

- experimental protocol: resazurin metabolic signal in HepG2 cells – cell-based, resazurin fluorescence, 24 h, PK04 Diversity Set, profiling panel (AID 1172); note: test concentration not given here
- condition notes: HepG2 viability, higher = more signal
Answer each item with its documented z-score.
Answers are plain numbers.

Consider the following items and state reported z-score for each.
1. C=CCNC(=O)[C@H]1[C@@H]2C(=O)O[C@@H](c3ccccc3)[C@@H](c3ccccc3)N2[C@@H](c2ccccc2OCCO)[C@]12C(=O)N(C(=O)OCCOC)c1ccc(C#Cc3ccc(OC)cc3)cc12
2. C[C@@H]1ON(c2ccccc2)[C@H](c2ccccc2)[C@H]1C(=O)O
3. O=C1NC(=O)C2C1C=CC(C(O)c1ccc([N+](=O)[O-])cc1)N2Nc1ccccn1 (centres undefined)

Reply:
1: -0.345; 2: 0.0656; 3: -0.731

Consider the following items and state reported z-score for each.
1. C[C@@H]1NC(=O)C([C@@H](C)OCc2ccccc2)NC(=O)[C@@]23C(=O)N[C@@H](Cc4ccccc4)C2[C@H](C)[C@@]2(C)O[C@H]2C3/C=C/C/C=C\CNC1=O (some centres undefined)
2. C=CC[C@@]1(C(=O)N(C)C)N=C(c2ccc(OCCCO)cc2)O[C@@H]1c1ccccc1CN=[N+]=[N-]
3. COC(=O)C(CC#Cc1ccc2c(c1)[C@]1(C(=O)N2)[C@H](c2ccccc2OCCO)N2[C@H](c3ccccc3)[C@H](c3ccccc3)OC(=O)[C@H]2[C@@H]1C(=O)N1CCc2cc(OC)c(OC)cc2C1)C(=O)OC
4. C=C(C)[C@@H]1CC=C(C(O)C2C=CC3C(=O)N(c4ccccc4)C(=O)C3N2Nc2ccc([N+](=O)[O-])cc2)CC1 (some centres undefined)

Reply:
[-0.847, -0.0494, 0.0231, -0.783]

Consider the following items and state reported z-score for each.
1. CCCCCC1=C2CNC(CC(C)C)(C(=O)OC)C=C2C(C)C1=O (centres undefined)
2. NC(=O)N1C(=O)C2C(C1=O)C1C=C(CCCO)C2C(c2ccc(CN3CCCC3)cc2)N1Cc1sc2ccccc2c1Cl (centres undefined)
3. COC(=O)[C@@]1(Cc2ccc(F)cc2)[C@H]2c3cc(C(=O)N4CCCC4)n(Cc4cc(F)cc5c4OCOC5)c3C[C@H]2CN1C(=O)c1ccccc1

Reply:
1. -0.97
2. -0.968
3. -1.29

Consider the following items and state reported z-score for each.
1. COc1ccc([Si](C)(C)[C@H]2[C@H](CC(=O)N3CCC[C@H]3CO)O[C@@]3(C(=O)N(Cc4ccc(N5CCCCC5=O)cc4)c4ccccc43)[C@@H]2C)cc1
2. COCC(=C=CC[C@H](O)c1ccccc1OCCO)C[C@H](O)COCc1ccccc1
3. COC(=O)[C@@]1(Cc2ccc(F)cc2)[C@H]2c3cc(C(=O)N4CCCC4)n(Cc4ccccn4)c3C[C@H]2CN1C(=O)c1ccccc1
4. C=C(COC)C(=O)CC[C@H](OC(=O)c1cccnc1)c1ccc(OCCO)cc1

Reply:
[-0.369, 0.0129, -1.52, -0.974]

###

- experimental protocol: compounds binding Alexa647 anti-His antibody – biochemical, small-molecule microarray, 635 nm fluorescence, artefact control for SMM control protein annotation, primary screen (AID 1128);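 note: score merges feature fluorescence with signal-to-noise for each printed compound spot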
- condition notes: higher = more signal
experimental readout: composite z-score
Answers are plain numbers.

Worked cases, answers included:
CCCCCC1=C2CNC(CC(C)C)(C(=O)OC)C=C2C(C)C1=O (stereo not given); 0.654
COc1ccc([Si](C)(C)[C@@H]2[C@@H](CC(=O)N3Cc4ccccc4C[C@H]3CO)O[C@]3(C(=O)N(Cc4cccc(N5CCOC5=O)c4)c4ccccc43)[C@H]2C)cc1; 1.23
C=C(CCCC)/C(=C/C[C@H](OC(=O)c1ccncc1)c1ccc(OCCO)cc1)c1cnc2ccccc2c1; 2.06
COC(=O)[C@@]1(Cc2ccc(F)cc2)[C@H]2c3cc(C(=O)N4CCCC4)n(CCc4ccccn4)c3C[C@H]2CN1C(=O)c1ccccc1; 0.272
COc1ccc(C(=O)Nc2ccc3c(c2)[C@@]2(O[C@H](CCO)[C@@H]([Si](C)(C)c4ccc(OC)cc4)[C@@H]2C)C(=O)N3Cc2ccccc2)cc1; 0.829
COc1ccc(C(O)C2C=CC3C(=O)N(c4ccccc4)C(=O)C3N2Nc2ccc([N+](=O)[O-])cc2)c2ccccc12 (stereo not given); 0.57
CN(C)CCCC[C@@H]1NC(=O)[C@H]2C[C@@H](C(=O)O)[C@@H](c3ccc(O)cc3)N2C1=O; 3.85
O=C1[C@@H]2[C@@H](CC(COc3ccccc3)=C([C@H](O)CCc3ccccc3)[C@@H]2CO)C(=O)N1Cc1ccccc1; 1.71

Consider the following items and state reported composite z-score for each.
1. OCCCC1=CC(c2ccc(CN3CCCC3)cc2)N(Cc2cccc(OC(F)(F)F)c2)CC1 (stereo not given)
2. CC(C)=C1C(=O)C(c2ccccc2)=C2CN3C(=O)N(CCc4ccccc4)C(=O)[C@]3(C)[C@H]21
3. [N-]=[N+]=Nc1ccccc1C[C@@]1(C(=O)NCC(O)CO)N=C(c2ccc(OCCCO)cc2)O[C@@H]1c1ccccc1 (stereo not given in full)
4. O=C1[C@H]2C=C(I)[C@H](C[C@@H]2c2ccccc2)[C@@]12CO2
5. O=C1O[C@H](c2ccccc2)[C@H](c2ccccc2)N2[C@H]1[C@@H](C(=O)N1CCN(c3ncccn3)CC1)[C@]1(C(=O)Nc3ccc(C#CCCO)cc31)[C@H]2c1ccc(O)cc1
6. CO[C@H]1O[C@H](CO)[C@@H](OC(=O)Nc2ccccc2)[C@H](OC(=O)Nc2ccccc2)[C@H]1OC(=O)Nc1ccccc1
7. O=C(NCC(O)CO)C1N=C(c2ccc(OCCCO)cc2)N(c2ccccc2)O1 (stereo not given)

Reply:
1: -0.299; 2: -0.0854; 3: -0.0048; 4: 0.214; 5: 0.144; 6: 2.2; 7: 0.703
